A collection of compounds and their measured melting point

Answered cases to consult:
- Compound: "Cc1nc(C(F)F)ccc1C(=O)C1=C(NS(=O)(=O)c2ccccc2)C(C)(C)C(=O)C(C)(C)C1=O"
  melting point: "130 °C"
- Compound: "O=C1NC(=O)C(Cc2ccc(OCCn3nc(-c4ccccc4)c4ccccc4c3=O)cc2)S1 (centres undefined)"
  melting point: "198 °C"
- Compound: "CCNC(=S)NS(=O)(=O)N1CCC(CCNC(=O)c2cc(Cl)ccc2OC)CC1"
  melting point: "138 to 140 °C"
- Compound: "CCN(CC)c1nc(-c2ccc(OC)cc2)nc2sc(C#N)c(C)c12"
  melting point: "154 to 156 °C"
- Compound: "COc1ccc(Cn2c(=O)c3ccccc3n(CCCCl)c2=O)cc1"
  melting point: "124 to 125 °C"
- Compound: "Nc1ccc(OCC(O)CN2CCN(c3ccccc3C(=O)O)CC2)cc1 (centres undefined)"
  melting point: "260 to 263 °C"
- Compound: "COc1ccc(OC)c(S(=O)(=O)NC(=O)C(C)Oc2cc(-n3nc(C)n(C(F)F)c3=O)c(F)cc2Cl)c1 (centres undefined)"
  melting point: "168 to 172 °C"
- Compound: "CC1(CCS)CN2CCCC(C(=O)O)N2C1=O (centres undefined)"
  melting point: "119 to 122 °C"
- Compound: "COc1ccc(NC(=S)Nc2cscc2C)c(N)c1"
  melting point: "143 to 146 °C"
- Compound: "CNC(=O)N(O)C(C)c1ccc(C#Cc2ccccc2)cc1 (centres undefined)"
  melting point: "138 to 141 °C"

Enquiry: Item under review: `CCNc1ncc(-c2cc(Cl)cc(Cl)c2Cl)c(N)n1` . Reported melting point?
Return: 149 to 152 °C

Enquiry: Bench note: what melting point did `CC(=O)OC1=C(CCCCCCCCC[Si](C)(C)C)C(=O)c2ccccc2C1=O` show?
Return: 45 to 47 °C

Enquiry: What melting point value was documented for this compound, CCOC(=O)C1=CC2(CCC1S(=O)(=O)Nc1ccc(F)cc1Cl)SCCS2 (centres undefined) ?
Return: 160 to 161 °C

Enquiry: For the compound `O=S(=O)(Nc1cccc(CCOCc2ccc(-c3ccc(Cl)cc3)cc2F)c1)C(F)(F)F` , what melting point is on record?
Return: 99 to 101 °C

Enquiry: Which melting point reading was recorded for the compound `CC(C)c1ccc(S(=O)(=O)n2c(Cc3ccc(C(=O)O)c(O)c3)cc3cc(Cl)ccc32)cc1` ?
Return: 139 °C

Enquiry: Quick check: melting point of `COc1cccc(CNC(=O)c2nc3cccc(O)c3c(=O)[nH]2)c1` ?
Return: 187 to 189 °C

Enquiry: # melting point lookup, item `CCOC(=O)CSc1nc(Cl)cc(Nc2c(C)cc(C)cc2C)n1`
Return: 100 to 103 °C

Enquiry: Item `N#Cc1c(CNC(=O)c2ccc(OC(F)(F)F)cc2)nn(-c2ccc(Cl)cc2Cl)c1-c1ccc(Cl)cc1` has what recorded melting point?
Return: 180 °C

Enquiry: Consider the compound shown here: `COSN=C1C(=O)N(C)C(=O)N1c1ccccc1F` What is its recorded melting point?
Return: 124 to 127 °C

Enquiry: I have this compound here, COc1ccccc1C(C)C(Sc1ccc(C(=O)O)cc1)n1ccnc1 (centres undefined) , and I need its recorded melting point.
Return: 118 to 124 °C

Enquiry: What melting point value was documented for this compound, `CCOC(=O)c1cc(C#N)cc(CO)n1` ?
Return: 87.5 °C

Enquiry: Request the reported melting point associated with `O=C(O)CCCCCCCn1c(-c2ccccc2)nc(-c2ccccc2)c1-c1ccccc1`
Return: 162 °C

Enquiry: Name the recorded melting point for `CC(C)(C)OC(=O)c1cc(I)ccc1OCc1ccc2ccccc2c1` .
Return: 90 °C

Enquiry: Name the recorded melting point for `CC(C)=CCCC(C)=CCc1c(-c2ccc(O)cc2O)oc2cc(O)cc(O)c2c1=O` .
Return: 94 to 95 °C

###

Entries and their melting point values follow.

Some solved entries appear below for comparison.
- Molecule: "COc1ccc(C(C)(C)C)cc1C(=O)NCCc1ccc(OC)c(S(N)(=O)=O)c1"
  melting point: "165 to 168 °C"
- Molecule: "CCCCCCCCCCCCCCCCCCOc1cc(C(=O)OC)cc(N(CC(=O)O)CC(=O)O)c1"
  melting point: "119 to 123 °C"
- Molecule: "CC(C)=CCc1cc(C2CC(=O)c3ccc(O)cc3O2)ccc1O (stereo not given)"
  melting point: "76 to 78 °C"
- Molecule: "CCN(CC)c1ccc([N+](=O)[O-])cc1C#N"
  melting point: "83 to 85 °C"

Here's the next entry for you.
Enquiry: I'd like to know its melting point. The molecule in question is `O=C(OCc1ccccc1)c1ccc(OC(=O)c2ccc(O)cc2)cc1`
Return: 137 to 138 °C

###

Quantity Measured: melting point (°C)

Completed entries (count: 2):
- Smiles Record: "CCN(CC)C(=O)COc1nc(C(F)(F)F)ns1"
  melting point (°C): 60
- Smiles Record: "CC(C)(C)[N+]([O-])=CCc1ccccc1"
  melting point (°C): 143

1. O=[N+]([O-])c1cc(Cn2ccnc2)ccc1NCc1cccnc1
2. O=c1[nH]c2cc(Cl)ccc2c(O)c1-n1cccn1
Enquiry: Select one. Lower melting point: 1 or 2 I would appreciate it if you answered with the label of your choice.
Return: 1

###

This listing pairs compounds with measured melting point.

- Compound: "NC(=O)[C@@H]1C[C@H](F)CN1C(=O)CCl"
  Result: "95 to 96 °C"

Enquiry: Item O=C1CCC(N2C(=O)c3cccc(Nc4ccc(C5CCCCC5)cc4)c3C2=O)C(=O)N1 (stereo not given) has what recorded melting point?
Return: 219 to 221 °C

Enquiry: What does the record list as melting point for COc1cc(C=C(N)C(C)=O)ccc1OCC(O)CNC(C)C (stereo not given) ?
Return: 139 to 140 °C

Enquiry: Any idea what its melting point is? The compound is `CCOC(=O)c1cnn(-c2c(F)c(F)c(C(F)(F)F)c(F)c2F)c1N`
Return: 166 to 168 °C

Enquiry: What measured melting point goes with `CC(=O)c1ccc2c(c1)Sc1cc(C(C)=O)ccc1O2` ?
Return: 179 °C

###

Quantity Measured: melting point (°C)

a. CCOC(=O)C(C)(C)Oc1ccc(C#N)cc1C
b. c1ccc(-c2nnc3cc(N4CCOCC4)c(OCc4ccccn4)nn23)cc1
Enquiry: Hey, between a and b which has a smaller measured melting point? Identify your pick by its label.
Return: a
(a: 46 °C, b: 214 °C)

###

Quantity Measured: melting point

Use these answered entries as a reference point.
- Compound: "CC(C)Oc1ccc2c(=O)c3ccc(O)cc3oc2c1"
  Quantity Measured: "melting point"
  Result: "268 to 281 °C"
- Compound: "O=C(O)COc1ccc(N2CC(=O)NS2(=O)=O)c(O)c1"
  Quantity Measured: "melting point"
  Result: "185 to 188 °C"
- Compound: "CC(SC1COC(C=CC=Cc2ccc(C#N)cc2F)OC1)C(O)(Cn1cncn1)c1ccc(F)cc1F (centres undefined)"
  Quantity Measured: "melting point"
  Result: "111 to 112 °C"

Enquiry: Can you look up the measured melting point of `C#CCN(c1cc(-n2nc3ccc(Cl)cn3c2=O)c(F)cc1C#N)S(=O)(=O)CC` for me?
Return: 176 to 178 °C

Enquiry: Recorded melting point of `O=C(CN1CCN(CCSc2nc3cccc(C(F)(F)F)c3o2)CC1)Nc1c(C(F)(F)F)cc(OCc2ccccc2)cc1C(F)(F)F` , please.
Return: 156 to 158 °C

Enquiry: Returns the measured melting point for the input compound. Input: `Nc1ccc(P(=O)(O)O)cc1`
Return: 257 to 260 °C

Enquiry: What melting point value was documented for this compound, C#CCN(C(CCn1c(=O)[nH]cc(C(F)(F)F)c1=O)C(=O)NO)S(=O)(=O)c1ccc(Oc2ccccc2)cc1 (centres undefined) ?
Return: 170 to 171 °C

###

A collection of compounds and their measured melting point

Observe how each entry below is paired with its result.
- Compound: "CCOC(=O)C(=CNC1CC1)C(=O)c1cc(F)c(F)c(Br)c1F"
  melting point: "74 to 76 °C"
- Compound: "CC(C)(C)C(=O)SC[C@H](NC(=O)C(C)(C)SC(=O)C(C)(C)C)C(=O)O"
  melting point: "140 to 141 °C"
- Compound: "COC(=O)CCc1ccc(OCC2CCN(c3ccncc3)CC2)cc1"
  melting point: "96.5 to 98.5 °C"
- Compound: "CN1CCC(O)(c2cccn2C)CC1"
  melting point: "123 to 124 °C"
- Compound: "COc1ccc2c(c1)CC(C(F)(F)F)N2C(=O)Nc1ccc(Oc2cccnc2)nc1 (stereo not given)"
  melting point: "202 to 204 °C"

Enquiry: Quick one: melting point for `Cc1cc(NC(=O)c2ccccc2O)cc(Cl)c1O` ?
Return: 192 to 194 °C

Enquiry: Quick one: melting point of COc1ccc(OCC2CO2)c(C(=O)Nc2cccc3[nH]ccc23)c1 (stereo not given) ?
Return: 122 °C

Enquiry: Returns the measured melting point for the input compound. Input: `Cc1ccc(-n2nc(C(F)F)cc2-c2ccc(S(C)(=O)=O)c(F)c2)cc1Cl`
Return: 146 to 147 °C

Enquiry: Please report the recorded melting point for `COc1cc2cc3c(Nc4ccc(Sc5nccn5C)c(Cl)c4)c(C#N)cnc3cc2cc1OCCCl` .
Return: 275 to 280 °C

Enquiry: Recorded melting point for CCOc1cc2c(cc1OC)C(c1ccc(-c3nnn(CC)n3)cc1)=N[C@H]1CCCC[C@@H]21 (racemic) , please?
Return: 167 to 170 °C

Enquiry: Can you share its melting point? I mean this compound: `O=C(O)Cn1c(=O)c(=O)[nH]c2ccc3ccc(-n4ccc(CN5CCN(C(c6ccccc6)c6ccccc6)CC5)c4)cc3c21`
Return: > 250 °C

Enquiry: Need melting point, item CC(=O)NCC1CC(c2ccc(F)cc2)=NO1 (stereo not given)
Return: 167 to 168 °C

Enquiry: May I ask what melting point has been recorded for `Nc1nccc(-c2c[nH]c3nccc(Cl)c23)n1` ?
Return: > 210 °C

Each recorded value in this set is attributed to a melting point compilation (Tetko et al.; mined from patent text by program, amines drawn as free bases though some values may be those of a salt).
